biological target: human Syk (GST-Syk) (Homo sapiens, UniProt P43405); construct: A cDNA fragment encoding human Syk openreading frame was cloned; made in house; host or cells: Sf21 insect cells (baculovirus, transfer vector pAcG2T); assay: Syk tyrosine kinase inhibitory assay; assay type: biochemical; settings: Table 17; IC50 classes; read-out: Activity grade
pIC50: −log10 of the molar value.
We begin with a simple list: items and their reported pIC50.

Please review the following examples before continuing.
COMPOUND	pIC50
COc1ccc(-c2cc3nccn3c(Sc3ccc(CCC(=O)N4CCOCC4)cc3)n2)cc1OC	> 6.30
COc1ccc(-c2cc3nccn3c(Sc3ccc4c(c3)CCC(C(=O)O)C4)n2)cc1OC (centres unmarked)	> 6.30
CCSc1nc(-c2ccc(OC)c(OC)c2)cc2nc(C(N)=O)cn12	5.70 to 6.30

Returns the measured pIC50 for the input compound. Input: COc1ccc(-c2cc3nccn3c(Nc3ccc(N)cc3C(N)=O)n2)cc1OC
> 6.30

Returns the measured pIC50 for the input compound. Input: COc1ccc(-c2cc3nccn3c(Nc3ccccc3)n2)cc1N
5.70 to 6.30

----------
We begin with a simple list: items and their reported pIC50.
target: human Syk (GST-Syk) (Homo sapiens); construct: A cDNA fragment encoding human Syk openreading frame was cloned; made in house; host or cells: Sf21 insect cells (baculovirus, transfer vector pAcG2T); experiment: Syk tyrosine kinase inhibitory assay; assay type: biochemical; conditions: Table 13; read-out: Activity grade
pIC50: −log10 of the molar value.

Please review the following examples before continuing.
COMPOUND	pIC50
Oc1ccc(Sc2nc(-c3ccccc3)cc3ncnn23)cc1 [Example 14-8]	5.00 to 5.70
COc1ccc(CSc2nc(-c3ccc(OC)c(OC)c3)cc3nccn23)cc1 [Example 14-1]	5.70 to 6.30
CCC(C)CSc1nc(-c2ccc(OC)c(OC)c2)cc2nccn12 (stereo not drawn) [Example 14-23]	5.70 to 6.30
COc1ccc(-c2cc3nccn3c(SCc3ccc(F)cc3)n2)cc1OC [Example 14-30]	5.70 to 6.30
COc1ccc(-c2cc3nccn3c(SCCN(C)C)n2)cc1OC [Example 14-27]	> 6.30
COc1ccc(-c2cc3nccn3c(SCc3cccs3)n2)cc1OC [Example 14-31]	> 6.30
COc1ccc(-c2cc3nccn3c(Sc3ccc(CCC(=O)O)cc3C(N)=O)n2)cc1OC [Example 14-35]	5.70 to 6.30
COc1ccc(-c2cc3nccn3c(Oc3cccc(C)c3)n2)cc1OC [Example 14-3]	5.70 to 6.30

Returns the measured pIC50 for the input compound. Input: COc1ccc(-c2cc3nccn3c(SCc3ccc(Cl)cc3)n2)cc1OC [Example 14-15]
5.70 to 6.30

----------
We begin with a simple list: items and their reported IC50.
Biological target: human Syk (GST-Syk) (Homo sapiens)
Construct: A cDNA fragment encoding human Syk openreading frame was cloned; made in house; host or cells: Sf21 insect cells (baculovirus, transfer vector pAcG2T)
Test: Syk tyrosine kinase inhibitory assay
Assay type: biochemical
Conditions: Table 11; read-out: Activity grade
Excerpt: [Syk Tyrosine Kinase Inhibitory Assay] (1) Preparation of Syk Protein A cDNA fragment encoding human Syk openreading frame was cloned from total RNA of human Burkitt's lymphoma B cell lines, Raji (American Type Culture Collection), with the use of RT-PCR method. The cDNA fragment was inserted into pAcG2T (Pharmingen, San Diego, Calif.) to construct a baculovirus transfer vector. […]

Please review the following examples before continuing.
COc1ccc(-c2cc3nccn3c(Nc3ccccn3)n2)cc1OC < 500 nM
COc1cc(-c2cc3nccn3c(Nc3ccccc3S(C)(=O)=O)n2)ccc1N1CCOCC1 < 500 nM
COc1ccc(-c2cc3nccn3c(Nc3ccc(Br)cc3)n2)cc1OC < 500 nM
COc1cc(-c2cc3nccn3c(Nc3ccccc3)n2)ccc1NCCCN1CCN(C)CC1 < 500 nM

Return IC50 measured with human Syk (GST-Syk) (Homo sapiens) given this compound: COC(=O)c1ccc(Nc2nc(-c3ccc(OC)c(OC)c3)cc3nccn23)s1
500 to 2000 nM

Return IC50 measured with human Syk (GST-Syk) (Homo sapiens) given this compound: c1ccc(Nc2nc(-c3ccc4c(c3)OCO4)cc3nccn23)cc1
500 to 2000 nM

Return IC50 measured with human Syk (GST-Syk) (Homo sapiens) given this compound: CCOc1ccc2nc(Nc3nc(-c4ccc(OC)c(OC)c4)cc4nccn34)sc2c1
500 to 2000 nM

Return IC50 measured with human Syk (GST-Syk) (Homo sapiens) given this compound: COc1ccc(-c2cc3nccn3c(Nc3ccccc3)n2)cc1[N+](=O)[O-]
< 500 nM

Return IC50 measured with human Syk (GST-Syk) (Homo sapiens) given this compound: COc1cc(-c2cc3nccn3c(Nc3ccccc3)n2)ccc1OCCN1CCOCC1
< 500 nM
